Assay: Non-nucleoside inhibition of NS5B polymerase S365A mutant in HCV genotype 1a by Taqman probe based RT-PCR analysis
Entries annotated with measured pEC50
Expect pEC50 as a plain number equal to -log10 of the molar concentration.

Example cases with answers are listed next.
INSERT INTO measurements (compound, meas_value) VALUES
  ('CNC(=O)c1c(-c2ccc(F)cc2)oc2cc(N(C)S(C)(=O)=O)c(-c3ccc4nnn([C@@H](COC)c5ccc(F)cc5)c(=O)c4c3)cc12', 6.32),
  ('CNC(=O)c1c(-c2ccc(F)cc2)oc2cc(N(C)S(C)(=O)=O)c(-c3cc(OC)c4nnn(Cc5ccc(F)cc5)c(=O)c4c3)cc12', 7.92),
  ('CNC(=O)c1c(-c2ccc(F)cc2)oc2cc(N(C)S(C)(=O)=O)c(-c3ccc4nc(C)n([C@H](COC)c5ccc(F)cc5)c(=O)c4c3)cc12', 7.43),
  ('CNC(=O)c1c(-c2ccc(F)cc2)oc2cc(N(C)S(C)(=O)=O)c(-c3cc(C)c4nnn(Cc5ccc(F)cc5)c(=O)c4c3)cc12', 6.92),
  ('CNC(=O)c1c(-c2ccc(F)cc2)oc2cc(N(C)S(C)(=O)=O)c(-c3ccc4nc(C)n(Cc5ccc(F)cc5)c(=O)c4n3)cc12', 6.86),
  ('CNC(=O)c1c(-c2ccc(F)cc2)oc2cc(N(C)S(C)(=O)=O)c(-c3ccc4nnn(C(CO)c5ccc(F)cc5)c(=O)c4c3)cc12 (configuration not stated)', 5.95);

Query: Give reported pEC50 value for `CNC(=O)c1c(-c2ccc(F)cc2)oc2cc(N(C)S(C)(=O)=O)c(-c3ccc4nnn([C@H](COC)c5ccc(F)cc5)c(=O)c4c3)cc12`
Result: 7.17

Query: Give reported pEC50 value for `CNC(=O)c1c(-c2ccc(F)cc2)oc2cc(N(C)S(C)(=O)=O)c(-c3cc4c(=O)n(Cc5ccc(F)cc5)nnc4cc3C)cc12`
Result: 7.80
